Test system: Actinomyces bovis 13684
Assay: Susceptibility of anaerobic bacteria, agar dilution
Assay type: cell-based
Details: Actinomyces bovis, 13684, 24 h, read-out: 24 Hr. Minimum Inhibitory Concentration
Form field: MIC (one value per entry).

COMPOUND	MIC
Cn1nc(-c2ncc([N+](=O)[O-])n2C)c(C#N)c1N [Compound 1]	< 0.125 µg/mL
Cn1nc(-c2ncc([N+](=O)[O-])n2C)cc1N [Compound 3]	< 0.125 µg/mL
CC[C@H]1OC(=O)[C@H](C)[C@@H](O[C@H]2C[C@@](C)(OC)[C@@H](O)[C@H](C)O2)[C@H](C)[C@@H](O[C@@H]2O[C@H](C)C[C@H](N(C)C)[C@H]2O)[C@](C)(O)C[C@@H](C)C(=O)[C@H](C)[C@@H](O)[C@]1(C)O [Erythromycin, erythromycin, reference compound]	1 µg/mL
Cn1c([N+](=O)[O-])cnc1-c1nn(CCO)c(N)c1C#N [Compound 14]	< 0.125 µg/mL

* * *

Form field: MIC (one value per entry).
Tested on: Fusobacterium symbiosum 1470
Experiment: Susceptibility of anaerobic bacteria, agar dilution
Format: cell-based
Details: 24 h; Fusobacterium symbiosum 1470; read-out: 24 Hr. Minimum Inhibitory Concentration
EXPERIMENTAL_READOUT: MIC

In [3]: df
Out[3]:
                                   molecule       observed
0  Cn1nc(-c2ncc([N+](=O)[O-])n2C)c(C(=O)O)c1N [Compound 10A]  < 0.125 µg/mL
1  CC(=O)Nc1c(C(=O)O)c(-c2ncc([N+](=O)[O-])n2C)nn1C [Compound 12]  < 0.125 µg/mL
2  CN(C)S(=O)(=O)Nc1c(C#N)c(-c2ncc([N+](=O)[O-])n2C)nn1C [Compound 20]        4 µg/mL
3  CC(=O)Nc1c(C#N)c(-c2ncc([N+](=O)[O-])n2C)nn1C [Compound 8]     0.03 µg/mL
4  C=CCOC=Nc1c(C#N)c(-c2ncc([N+](=O)[O-])n2C)nn1C [Compound 13A]  < 0.125 µg/mL
5  CCNc1cc(-c2ncc([N+](=O)[O-])n2C)nn1C [Compound 11A]   < 0.03 µg/mL
6  CCCCC(CC)COC=Nc1c(C#N)c(-c2ncc([N+](=O)[O-])n2C)nn1C (stereo not shown) [Compound 13D]        1 µg/mL

* * *

Tested on: Propionibacterium acnes 44
Assay: Susceptibility of anaerobic bacteria, agar dilution
Assay type: cell-based
Details: Cutibacterium acnes, 24 h; Propionibacterium acnes 44; read-out: 24 Hr. Minimum Inhibitory Concentration
EXPERIMENTAL_READOUT: MIC

                              smiles_string            target_or_system  experimental_readout    observed
0   Cn1nc(-c2ncc([N+](=O)[O-])n2C)c(C#N)c1N  Propionibacterium acnes 44                   MIC  > 32 µg/mL
1  CN(C)S(=O)(=O)Nc1c(C#N)c(-c2ncc([N+](=O)[O-])n2C)nn1C  Propionibacterium acnes 44                   MIC  > 32 µg/mL
2        Cn1nc(-c2ncc([N+](=O)[O-])n2C)cc1N  Propionibacterium acnes 44                   MIC   0.5 µg/mL

* * *

Tested on: Peptococcus anaerobius 1428
Test: Susceptibility of anaerobic bacteria, agar dilution
Type: cell-based
Conditions: 24 h, read-out: 24 Hr. Minimum Inhibitory Concentration
Form field: MIC (one value per entry).
EXPERIMENTAL_READOUT: MIC

                                   compound  experimental_readout       observed
0  Cn1nc(-c2ncc([N+](=O)[O-])n2C)c(C#N)c1N [Compound 1]                   MIC  < 0.125 µg/mL
1  Cn1nc(-c2ncc([N+](=O)[O-])n2C)c(C(N)=O)c1N [Compound 2]                   MIC  < 0.125 µg/mL
2  CC(=O)OCC1=C(C(=O)O)N2C(=O)[C@@H](NC(=O)Cc3cccs3)[C@H]2SC1 [Cephalothin, cephalothin, reference compound]                   MIC        2 µg/mL
3  CNNC=Nc1c(C#N)c(-c2ncc([N+](=O)[O-])n2C)nn1C [Compound 21]                   MIC  < 0.125 µg/mL
4  CCOC=Nc1c(C#N)c(-c2ncc([N+](=O)[O-])n2C)nn1C [Compound 4]                   MIC  < 0.125 µg/mL
5  CN(C)C=Nc1c(C#N)c(-c2ncc([N+](=O)[O-])n2C)nn1C [Compound 9]                   MIC  < 0.125 µg/mL

* * *

Test system: Veillonella alcalescens 1
Test: Susceptibility of anaerobic bacteria, agar dilution
Assay type: cell-based
Settings: Veillonella parvula, 24 h; Veillonella alcalescens 1; read-out: 24 Hr. Minimum Inhibitory Concentration
EXPERIMENTAL_READOUT: MIC

In [3]: df
Out[3]:
                                   compound  experimental_readout       observed
0  Cn1nc(-c2ncc([N+](=O)[O-])n2C)c(C(=O)O)c1N [Compound 10A]                   MIC  < 0.125 µg/mL
1  C=CCOC=Nc1c(C#N)c(-c2ncc([N+](=O)[O-])n2C)nn1C [Compound 13A]                   MIC  < 0.125 µg/mL
2  CC(=O)OCC1=C(C(=O)O)N2C(=O)[C@@H](NC(=O)Cc3cccs3)[C@H]2SC1 [Cephalothin, cephalothin, reference compound]                   MIC    < 0.5 µg/mL

* * *

Form field: MIC (one value per entry).
Tested on: Bacteroides fragilis sp. fragilis 1936B
Test: Susceptibility of anaerobic bacteria, agar dilution
Assay type: cell-based
Conditions: 24 h; Bacteroides fragilis sp. fragilis 1936B; read-out: 24 Hr. Minimum Inhibitory Concentration
EXPERIMENTAL_READOUT: MIC (µg/mL)

In [3]: df
Out[3]:
                                   compound  experimental_readout  observed
0  CC(=O)Nc1c(C(=O)O)c(-c2ncc([N+](=O)[O-])n2C)nn1C                   MIC        16
1  C=CCOC=Nc1c(C#N)c(-c2ncc([N+](=O)[O-])n2C)nn1C [Compound 13A]                   MIC         2
2  Cn1c([N+](=O)[O-])cnc1-c1nn(CCCl)c(N)c1C#N                   MIC       0.5

* * *

Test system: Fusobacterium symbiosum 1470
Assay: Susceptibility of anaerobic bacteria, agar dilution
Assay type: cell-based
Conditions: Fusobacterium, 1470, 24 h, read-out: 24 Hr. Minimum Inhibitory Concentration
Form field: MIC (one value per entry).
EXPERIMENTAL_READOUT: MIC

In [3]: df
Out[3]:
                                   compound              target_or_system      observed
0  Cn1c([N+](=O)[O-])cnc1-c1nn(CCO)c(N)c1C#N [Compound 14]  Fusobacterium symbiosum 1470  < 0.125 mg/L
1  CC=CC=Nc1c(C#N)c(-c2ncc([N+](=O)[O-])n2C)nn1C [Compound 18]  Fusobacterium symbiosum 1470  < 0.125 mg/L
2  CNNC=Nc1c(C#N)c(-c2ncc([N+](=O)[O-])n2C)nn1C [Compound 21]  Fusobacterium symbiosum 1470  < 0.125 mg/L
